// provenance: patent US9278974B2

- Tested on: UniProtKB Q60492
Structures can show the parent of a compound that is named as a salt.
Categories are defined by ranges of Ki, namely I (below 60 nM), II (60 nM to below 80 nM), III (80 nM or more)

Solved cases (4 shown):
- Molecule: "Clc1ccccc1-c1ncnc2c1cnn2CCN1CCCCC1"
  Label: "II"
- Molecule: "COc1cc(F)ccc1-c1ncnc2c1cnn2CCN1CCCCC1"
  Label: "I"
- Molecule: "Cc1cncc(-c2ncnc3c2cnn3CCN2CCCCC2)c1"
  Label: "III"
- Molecule: "Cc1cccc(-c2ncnc3c2cnn3CCN2CCCCC2)c1 [Example 3, hydrochloride]"
  Label: "III"

# bin label for CN(CCn1ncc2c(-c3ccccc3Cl)ncnc21)Cc1ccc(F)cc1
II

# bin label for COc1ncccc1-c1ncnc2c1cnn2CCN1CCCCC1 [Example 11]
III

# bin label for Cn1nc(C(F)(F)F)cc1-c1ncnc2c1cnn2CCN1CCCCC1
III

# bin label for Cc1ccccc1-c1ncnc2c1cnn2CCN1CCCCC1
II

# bin label for COc1ncccc1-c1ncnc2c1cnn2CCN1CCCCC1 [Example 10]
III

# bin label for Cc1ccc(C)c(-c2ncnc3c2cnn3CCN2CCCCC2)c1
I

# bin label for Cc1ccc(Cl)c(-c2ncnc3c2cnn3CCN2CCCCC2)c1
I

# bin label for Fc1ccc(-c2ncnc3c2cnn3CCN2CCCCC2)c(Cl)c1
I

# bin label for c1ccc(-c2ncnc3c2cnn3CCN2CCCCC2)cc1
III

# bin label for Clc1ccc(-c2ncnc3c2cnn3CCN2CCCCC2)s1
I

# bin label for Cc1cc(F)ccc1-c1ncnc2c1cnn2CCN1CCCCC1
I

###

- Tested on: sigma-1 receptor (Cavia porcellus, UniProt Q60492)
- Sequence (Q60492 whole entry): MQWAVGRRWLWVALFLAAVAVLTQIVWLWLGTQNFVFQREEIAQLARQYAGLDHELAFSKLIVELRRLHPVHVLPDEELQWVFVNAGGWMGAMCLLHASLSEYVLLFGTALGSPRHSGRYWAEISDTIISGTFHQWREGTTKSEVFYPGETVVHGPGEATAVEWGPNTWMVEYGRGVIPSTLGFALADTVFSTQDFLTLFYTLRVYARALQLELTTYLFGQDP
Where a name gives a salt, the structure may show the parent alone.
// NB: equality with 80 nM counts as false (0); only Ki strictly below is true (1)

Solved cases (3 shown):
- Compound: "CN(CCn1ncc2c(-c3ccnn3C)ncnc21)Cc1ccc(F)cc1"
  Label: "true (1)"
- Compound: "Cc1noc(C)c1-c1ncnc2c1cnn2CCN1CCCCC1 [Example 6, hydrochloride]"
  Label: "true (1)"
- Compound: "CN(CCn1ncc2c(-c3ccc(F)cc3Cl)ncnc21)Cc1ccc(F)cc1"
  Label: "true (1)"

Next, consider the following compound.
Here's an entry: CCOc1ccccc1-c1ncnc2c1cnn2CCN1CCCCC1 [Example 13, hydrochloride] . Is its Ki below 80 nM?
false (0)
